Measured IC90, listed per entry for reference.
Tested on: Human immunodeficiency virus 1
Experiment: The concentration required to inhibit HIV-1 RNA synthesis by 90%. Viral RNA quantified by a sandwich hybridization assay
Format: functional
Settings: Human immunodeficiency virus 1
Return type: number; implicit unit nM.

The cases that follow already have their IC90 on record.
>>> measured_number("CCCCNC(=O)c1cccc(CN2C(=O)N(Cc3cccc(C(=O)NCCCC)c3)[C@H](Cc3ccccc3)[C@H](O)[C@@H](O)[C@H]2Cc2ccccc2)c1")
255
>>> measured_number("Cc1ccnc(NC(=O)c2cccc(CN3C(=O)N(Cc4cccc(C(=O)Nc5nccc(C)n5)c4)[C@H](Cc4ccccc4)[C@H](O)[C@@H](O)[C@H]3Cc3ccccc3)c2)n1")
124
>>> measured_number("CCCNC(=O)c1cccc(CN2C(=O)N(Cc3cccc(C(=O)NCCC)c3)[C@H](Cc3ccccc3)[C@H](O)[C@@H](O)[C@H]2Cc2ccccc2)c1")
259
>>> measured_number("O=C(NCC(F)(F)F)c1cccc(CN2C(=O)N(Cc3cccc(C(=O)NCC(F)(F)F)c3)[C@H](Cc3ccccc3)[C@H](O)[C@@H](O)[C@H]2Cc2ccccc2)c1")
92.5
>>> measured_number("O=C(Nc1ccc(Cl)cn1)c1cccc(CN2C(=O)N(Cc3cccc(C(=O)Nc4ccc(Cl)cn4)c3)[C@H](Cc3ccccc3)[C@H](O)[C@@H](O)[C@H]2Cc2ccccc2)c1")
14.7

Please turn your attention to the following entry.
IC90 for "O=C1N(Cc2ccc(CO)cc2)[C@H](Cc2ccccc2)[C@H](O)[C@@H](O)[C@@H](Cc2ccccc2)N1Cc1ccc(CO)cc1" ?
115
